Reported ΔTm values for the following compounds.
assay: Binding affinity to synthetic 20-mer hairpin duplex DNA assessed as change in melting temperature at 10 molar equiv to DNA measured after 10 mins by circular dichroism melting analysis

Smiles notation | ΔTm / °C
CN(C)c1ccc(-c2nc3c4ncn(CCCNC(=N)N)c4ncn3c2NC(C)(C)C)cc1 | 0.2
CN(C)c1ccc(-c2nc3c4ncn(CCN5CCCC5)c4ncn3c2NC(C)(C)C)cc1 | 7.5
CC(C)(C)Nc1c(-c2ccccc2OCCN2CCOCC2)nc2c3ncn(CCN4CCOCC4)c3ncn12 | 1.2
CC(C)(C)Nc1c(-c2ccccc2F)nc2c3ncn(CCN4CCCC4)c3ncn12 | 0.3
CN(C)c1ccc(-c2nc3c4ncn(CCN5CCOCC5)c4ncn3c2NC(C)(C)C)cc1 | 1.9
CN(C)CCCn1cnc2c1ncn1c(NC(C)(C)C)c(-c3ccccc3F)nc21 | 0.2
CN(C)c1ccc(-c2nc3c4ncn(CCCN)c4ncn3c2NC(C)(C)C)cc1 | 0.5
CC(C)(C)Nc1c(-c2ccc(N3CCOCC3)cc2)nc2c3ncn(CCN4CCOCC4)c3ncn12 | 1.5
CC(C)(C)Nc1c(-c2ccc(Cl)cc2)nc2c3ncn(CCN4CCOCC4)c3ncn12 | -0.5
CC(C)(C)Nc1c(-c2ccccc2F)nc2c3ncn(CCN4CCOCC4)c3ncn12 | 0.5
CC(C)(C)Nc1c(-c2ccc(N3CCOCC3)cc2)nc2c3ncn(CCN4CCCC4)c3ncn12 | 6
CC(C)(C)Nc1c(-c2ccccc2OCCN2CCCC2)nc2c3ncn(CCN4CCCC4)c3ncn12 | 2.2
CN(C)CCCn1cnc2c1ncn1c(NC(C)(C)C)c(-c3ccc(Cl)cc3)nc21 | -0.5
CN(C)CCCOc1ccccc1-c1nc2c3ncn(CCCN(C)C)c3ncn2c1NC(C)(C)C | 3.5
CN(C)CCCn1cnc2c1ncn1c(NC(C)(C)C)c(-c3ccc(N4CCOCC4)cc3)nc21 | 9.7
CC(C)(C)Nc1c(-c2ccc(Cl)cc2)nc2c3ncn(CCN4CCCC4)c3ncn12 | 1.9

###

target: Quadruplex DNA; experiment: Binding affinity to synthetic Cy5-fluorescently labeled c-KIT1 G4 quadruplex DNA by microscale thermophoresis method; assay type: nucleic-acid assay
pKd: −log10 of the molar value.
Measured parameter: pKd

Smiles notation | Measured parameter | Value
CN(C)CCCn1cnc2c1ncn1c(NC(C)(C)C)c(-c3ccc(Cl)cc3)nc21 | pKd | 4.29

###

test system: A-375; experiment: Cytotoxicity against human A375 cells assessed as reduction in cell viability measured after 48 hrs by combined MTT assay; type: functional, cell-based; conditions: A-375, 48 h

Smiles notation | IC50
CN(C)CCCn1cnc2c1ncn1c(NC(C)(C)C)c(-c3ccc(Cl)cc3)nc21 | > 100 µM
